Data origin: PubChem BioAssay (NCATS)

Experiment: Cytotoxicity counterscreen for inhibitors of SARS-CoV-2 cell entry (AID 1645845); also: nearly all actives have a fitted effect of over 50% in size
Details: cell viability (SARS-CoV-2 entry assay cells); series mostly up to 57.1 µM
Records with an inconclusive call do not appear. Calls of active or inactive are those of the source. Calls follow the shape of the full dose curve.
Select the correct class. Options are active, inactive and nothing else.

CCN(CC)CCNC(=O)c1ccc2nc(-c3ccccc3)c(-c3ccc(CN4CCC(n5c(=O)[nH]c6ccccc65)CC4)cc3)nc2c1 = active
COc1cc(C)c(C=CC(C)=CC=CC(C)=CC(=O)O)c(C)c1C = inactive
Cc1coc2c1C(=O)C(=O)c1c-2ccc2c1CCCC2(C)C = inactive

Assay outcome for `CNc1nc(Nc2ccc(C(=O)N3CCOCC3)cc2OC)ncc1Cl` : what was it?
inactive

Assay result, entry `N[C@@H](Cc1ccc(O)c(O)c1)C(=O)O` — outcome?
inactive

Record lookup: outcome of this test for `Nc1ccn([C@@H]2O[C@H](CO)[C@@H](O)[C@H]2O)c(=O)n1` ?
inactive

----------
Molecular target: Luciferin 4-monooxygenase (Photinus pyralis) (UniProt P08659)
Experiment: Primary firefly luciferase (FLuc) qHTS assay for identification of artifact compounds. (AID 1845220);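 also: plate controls were DMSO vehicle for no effect and no enzyme for full effect; nearly all actives have a fitted effect of over 60% in size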
Conditions: purified firefly luciferase, luminescence, 5 min; series mostly up to 54.1 µM
Source text: PI: Alexander Tropsha Ph.D. UNC Eshelman School of Pharmacy University of North Carolina, Chapel Hill, North Carolina Hits from high-throughput screening (HTS) of chemical libraries are often false positives due to their interference with the assay detection technology. […] Using these curated datasets, we developed and validated several Quantitative Structure-Interference Relationship (QSIR) models to predict nuisance behavior. […] 6; Detection; Luminescence, ViewLux microplate reader. […]
Calls of active or inactive are those of the source. Calls follow the shape of the dose curve; as a rule, active = well fitted inhibition curve with a large enough effect; inconclusive = small, poorly fitted or top-dose-only effect; inactive = flat fitted curve, though single readings scatter. Where a SMILES comes first, the peptide text is derived from it. [ ]: non-standard residue; d: D form. Ala(indol-2-yl) = N[C@@H](Cc1cc2ccccc2[nH]1)C(=O)O; Aib = CC(C)(N)C(=O)O
Kindly supply the reported activity change, negative = inhibition values for the records listed here.

Worked cases, answers included:
CO[C@@H]1C[C@H](O[C@H]2CC[C@@]3(C)C(CCC4C3CC[C@]3(C)[C@@H](C5=CC(=O)OC5)[C@@H](OC(C)=O)CC43O)C2)O[C@H](C)[C@@H]1O[C@H]1O[C@H](CO[C@@H]2O[C@H](CO)[C@@H](O)[C@H](O)[C@H]2O)[C@@H](O)[C@H](O)[C@H]1O (stereo partly specified) = -3.37% [at 11.6 µM] (inactive)
CC[C@H](C)[C@H](NC(=O)[C@H]1CCCCN1C)C(=O)N(COC(=O)CC(C)C)[C@H](C[C@@H](OC(C)=O)c1nc(C(=O)N[C@@H](Cc2ccc(O)cc2)C[C@H](C)C(=O)O)cs1)C(C)C = -4.53% [at 1.03 µM] (inactive)
CC(C)(NC(=O)[C@@H](N)Cc1ccc(O)cc1)C(=O)N[C@@H](Cc1cc2ccccc2[nH]1)C(=O)N[C@@H](Cc1ccccc1)C(=O)O (H-Y[Aib][Ala(indol-2-yl)]F-OH) = 1.26% [at 11.6 µM] (inactive)
CO[C@@H]1[C@@H](O)[C@@H](O[C@H]2CC[C@]3(C=O)C4CC[C@]5(C)[C@@H](C6=CC(=O)OC6)CC[C@]5(O)[C@@H]4CC[C@H]3C2)O[C@@H](C)[C@H]1O[C@@H]1O[C@H](CO[C@@H]2O[C@H](CO)[C@@H](O)[C@H](O)[C@H]2O)[C@@H](O)[C@H](O)[C@H]1O (stereo partly specified) = -6.08% [at 11.6 µM] (inactive)

I have 2 compounds here; please give me activity change, negative = inhibition for each one.
1. C/C=C(\C)C(=O)OC1C2C3(C)CCC(OC4CC(OC)C(OC5OC(C)C(O)C(OC)C5O)C(C)O4)CC3CCC23OC32CCC(C(C)=O)C2(C)C1OC(=O)/C(C)=C/C (stereo unspecified)
2. CO[C@H]1C[C@H](O[C@H]2CC[C@@]3(C)C(=CCC4C3CC[C@]3(C)[C@@H](C5=CC(=O)OC5)CC[C@]43O)C2)O[C@@H](C)[C@@H]1O[C@@H]1O[C@H](CO[C@@H]2O[C@H](CO)[C@@H](O)[C@H](O)[C@H]2O)[C@@H](O)[C@H](O)[C@H]1O (stereo partly specified)

1: 0.886% [at 11.6 µM] (inactive); 2: 0.797% [at 11.6 µM] (inactive)

----------
Assay: qHTS for ATAD5 Antagonist screened against the NCATS CANVASS Library (AID 1347370);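 also: HEK293T cells carrying an ATAD5 luciferase reporter co-treated with 10 µM 5-fluorouridine; % is scaled to controls: 0 for no effect and ±100 for the full control effect; nearly all actives have a fitted effect of over 65% in size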
Conditions: HEK293T-ATAD5-luc, 5-FUrd stimulated, luminescence, 16 h; series mostly up to 46.1 µM
Results filed as inconclusive are left out. Active and inactive are the calls of the source. Calls follow the shape of the dose curve; as a rule, active = well fitted inhibition curve with a large enough effect; inconclusive = small, poorly fitted or top-dose-only effect; inactive = no such curve, though single readings can be large or run the other way.
value.type: outcome

CO[C@H](c1ccccc1)[C@H]1NC(=O)C(C)NC(=O)C(C[C@@H](C)CO)N(C)C(=O)[C@@H](C(O)c2cn(C(C)(C)C3CO3)c3ccccc23)NC(=O)C(C(C)C=C(C)C)NC(=O)C(CC(C)C)N(C)C(=O)C(C(C)C)NC1=O (stereo partly drawn) = inactive
CC=C1CN(C=O)[C@H]2C[C@@H]1[C@@H](C(=O)OC)[C@@]13CCOC21Nc1ccccc13 (stereo partly drawn) = inactive
CC[C@@H]1CN2CC[C@@]3(O)C(=Nc4cccc(OC)c43)[C@@H]2C[C@@H]1/C(=C\OC)C(=O)OC = inactive

----------
Would you mind telling me the reported activation of each entry?
Assay: qHTS Assay for Identification of Small Molecule Agonists for Hypoxia Response Element Signaling Pathway (AID 914); also: % of control where 0% means no effect
Conditions: ME-180 (cervical carcinoma) HRE-bla reporter, beta-lactamase ratio, CoCl2, 17 h; active compounds read high
Description: NIH Molecular Libraries Screening Centers Network [MLSCN] NIH Chemical Genomics Center [NCGC] Hypoxia-inducible factor-1 (HIF-1) is the major hypoxia-regulated transcription factor that controls cellular responses to low oxygen concentration. HIF-1 is composed of two subunits: hypoxia responsive HIF-1 alpha and constitutively expressed HIF-1 beta, which is also known as aryl hydrocarbon receptor nuclear translocator. […]
Records with an inconclusive call do not appear.
One number for each entry, in %.

As a guide, the following entries are already answered.
CN1[C@@H]2CC[C@H]1CC(O[C@@H](c1ccccc1)c1ccc(Cl)cc1)C2 (some centres undefined) = -9.36
C[C@H](N)Cc1c[nH]c2ccc(O)cc12 = -4.29
CP(=O)(O)CCCN = 7.54

Continue with the next compound.
Requested read-out: activation. Entry: CN(C)[C@@H]1C(=O)C(C(N)=O)=C(O)[C@@]2(O)C(=O)C3=C(O)c4c(O)ccc(Cl)c4[C@@](C)(O)C3C[C@@H]12 (some centres undefined)
4.51

----------
System: Tov-21-G
Test: Primary qHTS to identify gynecologic anti-cancer compounds using libraries of approved drugs and bioactive compounds (AID 1345084); also: % is scaled to controls: 0 for no effect and ±100 for the full control effect; nearly all actives have a fitted effect of over 55% in size
Conditions: Gynecologic cancer cell panel viability, ATPlite luminescence, 48 h; series mostly up to 57.5 µM
Results filed as inconclusive are left out. Activity calls are given as the source filed them. Calls come from the whole dose curve; as a rule, active = well fitted cell-killing curve with a large enough effect; inconclusive = small, poorly fitted or top-dose-only effect, or effect the other way; inactive = flat fitted curve, though single readings scatter.
value.type: outcome

Before answering, review these 5 worked examples.
CC(C)OC(=O)c1ccnc2cc(C(OCCN3CCCCC3)c3ccccc3Cl)sc12 (stereo unspecified) = inactive
O=S(=O)(c1ccccc1F)N1CCOc2c(N3CCNCC3)cccc21 = inactive
OC(CNc1ccccc1)Cn1c2ccc(Br)cc2c2cc(Br)ccc21 (stereo unspecified) = inactive
COC1(C[S@@](=O)c2ccccc2)CCN(CCc2c[nH]c3ccc(F)cc23)CC1 = inactive
CCC(C)(O)C1(C(=O)O)COC(=O)C1 (stereo unspecified) = inactive

Please turn your attention to the following entry.
Please look up its outcome: `CCOC(=O)c1ccc(-c2ccc(OC(=O)N(C)Cc3cccc(-c4ccncc4)c3)cc2)cc1`
inactive

----------
Assay: qHTS for Inhibitors of the Functional Ribonucleoprotein Complex (vRNP) of Lymphocytic Choriomeningitis Arenaviruses (LCMV): Viability assay - alamar blue signal for LCMV Primary Screen (AID 1347085); also: nearly all actives have a fitted effect of over 80% in size
Conditions: alamar blue viability counter-screen, LCMV vRNP screen cells; series mostly up to 57.5 µM
Records with an inconclusive call do not appear. Calls of active or inactive are those of the source. Calls come from the whole dose curve; tested in HEK293 reporter line.
Respond using exactly one of the listed classes: active, inactive

Please review the entries below; each comes with its answer.
CC(C)C1C(=O)O[C@@H]2CCN3CC=C(COC(=O)[C@](C)(O)[C@]1(C)O)[C@H]23 (stereo not given in full) = inactive
CCOC(=O)N[C@@H]1CC[C@@H]2[C@@H](C1)C[C@H]1C(=O)O[C@H](C)[C@H]1[C@@H]2C=Cc1ccc(-c2cccc(F)c2)cn1 = active
Cc1nc2c([nH]1)CCN(C(=O)c1ccc(NC(=O)c3ccccc3-c3ccccc3)cc1)c1ccccc1-2 = inactive

Hi team, can someone confirm the assay call for `C[C@]12CC[C@@H]3c4ccc(O)cc4CC[C@H]3[C@H]1C[C@@H](O)[C@H]2O` ?
active

Hi, do you know how `O=C1NC(=O)C(=Cc2ccc(-c3ccc(F)cc3)o2)S1` came out in this test?
inactive

Look up the recorded call for COc1cc2c(cc1O)C(Cc1ccc(O)cc1)NCC2 (stereo not given) in this test.
inactive
